Assignment: determine reported growth for the given molecules.
tested on: A498 renal; assay: NCI-60 one-dose screen, 48 h (100 = growth as untreated, 0 = no growth, -100 = all killed); conditions: 10 µM
The panel holds about 83,000 compounds, 20% with a hit somewhere; the sample as a whole holds those more often.
// units = %; emit number, no label

Return value of growth for input Cc1cc(-c2nc3cc(F)ccc3[se]2)cc(F)c1N , no commentary. 74.8

Return value of growth for input COC(=O)[C@H](Cc1ccccc1)NNC(=O)c1csc([C@@H](C[C@H](C(C)C)N(C)C(=O)[C@@H](NC(=O)[C@H]2CCCCN2C)C2CC2)OC(C)=O)n1 , no commentary. -3.69

Return value of growth for input C=COC(=O)CCN1CC1 , no commentary. 77.4

Return value of growth for input C/C(Cc1ccc(Cl)cc1)=C(\c1ccc(OCCN2CCOCC2)cc1)c1ccc(OC(=O)Cc2ccccc2)cc1 , no commentary. 98.6

Return value of growth for input CC1=C(CNO)C2=C(C)C3(CC3)[C@@](C)(O)C(=O)C2=C1 , no commentary. -70.9

Return value of growth for input C[n+]1c(/C=C/c2ccc(N(CCCl)CCCl)cc2)sc2ccccc21 , no commentary. 84.9

Return value of growth for input CC[C@H](C)[C@@H]([C@@H](CC(=O)N1CCC[C@H]1[C@H](OC)[C@@H](C)C(=O)N[C@H](C)[C@@H](O)c1ccccc1)OC)N(C)C(=O)[C@@H](NC(=O)[C@@H](NC)C(C)C)C(C)C , no commentary. -11.7

Return value of growth for input COc1ccc2c(c1)c(-c1nc(-c3cn(C)c4ncccc34)cs1)cn2CCN1CCOCC1 , no commentary. 76.1

Return value of growth for input CCCCC1(CCC)C(=O)NC(=S)NC1=O , no commentary. 129

Return value of growth for input O=[N+]([O-])c1c(Br)sc(Br)c1[N+](=O)[O-] , no commentary. 111

Return value of growth for input Cc1sc2c(c1C)C(c1ccc(Cl)cc1)=N[C@@H](CC(=O)OC(C)(C)C)c1nnc(C)n1-2 , no commentary. -11.8

Return value of growth for input CN(CCCCN(C)CCOS(C)(=O)=O)CCOS(C)(=O)=O , no commentary. 85.3

Return value of growth for input CC(=O)[O][Hg][O]C(C)=O , no commentary. 117

Return value of growth for input O=C(CCCCCCC(=O)Nc1ccc(N(CCCl)CCCl)cc1)NO , no commentary. 54.1

Return value of growth for input Cc1c(O)c(CN(CCCl)CCCl)cc(CN(CCCl)CCCl)c1O , no commentary. 92.4

Return value of growth for input O=[As](O)(O)c1ccccc1[As](=O)(O)O , no commentary. 102

Return value of growth for input CCC[CH2][Sn]([CH2]CCC)([CH2]CCC)[O]c1ccc(Cl)cc1Cl , no commentary. -98.1

Return value of growth for input Clc1ccc(COC(Cn2ccnc2)c2ccc(Cl)cc2Cl)cc1 (stereo not given) , no commentary. 43.4

Return value of growth for input NC(=O)CNc1ccc([As]=[As]c2ccc(NCC(N)=O)cc2)cc1 (stereo not given) , no commentary. 58.1

Return value of growth for input COC(=O)[C@@H](C)C[C@H](Cc1ccccc1)NC(=O)c1csc([C@@H](C[C@H](C(C)C)N(C)C(=O)C2(NC(=O)[C@H]3CCCCN3C)CCC2)OC(C)=O)n1 , no commentary. -2.79
